# targetEntity: 5-hydroxytryptamine receptor 2C (Homo sapiens)
# Sequence (P28335 whole entry): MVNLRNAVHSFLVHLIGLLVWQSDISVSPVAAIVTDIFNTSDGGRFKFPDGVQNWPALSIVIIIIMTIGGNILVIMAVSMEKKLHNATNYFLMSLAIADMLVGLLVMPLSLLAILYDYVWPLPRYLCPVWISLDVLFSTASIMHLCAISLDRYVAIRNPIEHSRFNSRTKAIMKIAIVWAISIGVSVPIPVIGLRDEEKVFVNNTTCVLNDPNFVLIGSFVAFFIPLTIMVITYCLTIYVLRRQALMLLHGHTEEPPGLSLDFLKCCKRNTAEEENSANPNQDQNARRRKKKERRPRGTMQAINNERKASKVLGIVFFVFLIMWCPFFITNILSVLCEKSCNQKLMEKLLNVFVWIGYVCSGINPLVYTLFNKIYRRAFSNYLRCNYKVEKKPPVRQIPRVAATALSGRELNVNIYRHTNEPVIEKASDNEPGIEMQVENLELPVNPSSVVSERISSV
# protocolDetails: Displacement of [3H]mesulergine from human 5HT2C receptor expressed in cells
Entries whose IC50 is below 600 nM take T; entries at or above 600 nM take F.

Record CN1CCN(c2cccc3c2C(=O)CCN3S(=O)(=O)c2ccc3ccccc3c2)CC1 : is its IC50 strictly below 600 nM? T

Record Cc1cc(N2CCN(C)CC2)c2c(c1)N(S(=O)(=O)c1ccc3ccccc3c1)C(C)CC2=O (stereo unspecified) : is its IC50 strictly below 600 nM? T

Record CN1CCN(c2ccc3c(c2)N(S(=O)(=O)c2ccc4ccccc4c2)CCC3=O)CC1 : is its IC50 strictly below 600 nM? F

Record CC1CC(=O)c2ccc(N3CCN(C)CC3)cc2N1S(=O)(=O)c1ccc2ccccc2c1 (stereo unspecified) : is its IC50 strictly below 600 nM? T

Record CCC1CC(=O)c2c(N3CCN(C)CC3)cccc2N1S(=O)(=O)c1ccc2ccccc2c1 (stereo unspecified) : is its IC50 strictly below 600 nM? T

Record CC1CC(=O)c2c(N3CCN(C)CC3)cccc2N1S(=O)(=O)c1ccc2ccccc2c1 (stereo unspecified) : is its IC50 strictly below 600 nM? T

----------
# targetEntity: 5-hydroxytryptamine receptor 7 (Homo sapiens)
# Sequence (P34969 whole entry): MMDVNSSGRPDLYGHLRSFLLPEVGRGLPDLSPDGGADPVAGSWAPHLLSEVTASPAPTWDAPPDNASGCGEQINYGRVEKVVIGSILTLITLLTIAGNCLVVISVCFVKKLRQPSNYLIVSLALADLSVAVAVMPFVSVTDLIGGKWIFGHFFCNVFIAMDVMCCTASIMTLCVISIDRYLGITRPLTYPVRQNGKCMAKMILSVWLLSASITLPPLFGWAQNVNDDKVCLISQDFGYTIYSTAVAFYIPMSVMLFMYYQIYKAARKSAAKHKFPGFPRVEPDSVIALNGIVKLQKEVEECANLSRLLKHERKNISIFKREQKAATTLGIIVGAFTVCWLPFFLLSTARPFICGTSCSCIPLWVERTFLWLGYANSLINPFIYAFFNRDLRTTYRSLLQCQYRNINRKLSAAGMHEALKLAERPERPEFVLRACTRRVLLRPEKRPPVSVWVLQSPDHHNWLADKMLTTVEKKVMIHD
# protocolDetails: Displacement of [3H]LSD from human 5HT7 receptor expressed in cells
quantityMeasured: pIC50
Give only the number. pIC50 is defined as minus log10 of concentration in molar units.

Recall and state the measured pIC50 for CC1CC(=O)c2c(N3CCN(C)CC3)cccc2N1S(=O)(=O)c1ccc2ccccc2c1 (stereo unspecified) . 5.70

Recall and state the measured pIC50 for CN1CCN(c2ccc3c(c2)N(S(=O)(=O)c2ccc4ccccc4c2)CCC3=O)CC1 . 6.84

Recall and state the measured pIC50 for CN1CCN(c2cccc3c2C(=O)CCN3S(=O)(=O)c2ccc3ccccc3c2)CC1 . 6.21

----------
Please go through the items and note down their IC50.
# targetEntity: D(3) dopamine receptor (Homo sapiens, UniProt P35462)
# Sequence (P35462 whole entry): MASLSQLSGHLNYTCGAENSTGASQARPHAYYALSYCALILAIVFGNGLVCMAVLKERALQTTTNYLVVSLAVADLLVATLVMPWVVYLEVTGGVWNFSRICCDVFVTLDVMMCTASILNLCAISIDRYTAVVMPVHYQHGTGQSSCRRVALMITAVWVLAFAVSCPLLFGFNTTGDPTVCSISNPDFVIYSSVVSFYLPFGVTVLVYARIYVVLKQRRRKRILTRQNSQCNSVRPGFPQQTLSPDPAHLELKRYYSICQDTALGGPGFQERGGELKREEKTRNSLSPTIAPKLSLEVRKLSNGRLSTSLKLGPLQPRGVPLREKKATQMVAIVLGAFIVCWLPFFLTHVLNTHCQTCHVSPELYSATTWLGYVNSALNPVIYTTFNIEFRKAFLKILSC
# protocolDetails: Displacement of [3H]spiperone from human dopamine D3 receptor expressed in cells
Kindly provide the numeric value in nM only, without the unit symbol.

Recall and state the measured IC50 for CCC1CC(=O)c2c(N3CCN(C)CC3)cccc2N1S(=O)(=O)c1ccc2ccccc2c1 (stereo unspecified) . 623

Recall and state the measured IC50 for Cc1cc(N2CCN(C)CC2)c2c(c1)N(S(=O)(=O)c1ccc3ccccc3c1)C(C)CC2=O (stereo unspecified) . 180

Recall and state the measured IC50 for CN1CCN(c2cccc3c2C(=O)CCN3S(=O)(=O)c2ccc3ccccc3c2)CC1 . 2920

Recall and state the measured IC50 for CC1CC(=O)c2ccc(N3CCN(C)CC3)cc2N1S(=O)(=O)c1ccc2ccccc2c1 (stereo unspecified) . 1520

Recall and state the measured IC50 for CC1CC(=O)c2c(N3CCN(C)CC3)cccc2N1S(=O)(=O)c1ccc2ccccc2c1 (stereo unspecified) . 482

Recall and state the measured IC50 for CN1CCN(c2ccc3c(c2)N(S(=O)(=O)c2ccc4ccccc4c2)CCC3=O)CC1 . 1300

----------
Please go through the items and note down their pIC50.
# targetEntity: D(2) dopamine receptor (Homo sapiens)
# Sequence (P14416 whole entry): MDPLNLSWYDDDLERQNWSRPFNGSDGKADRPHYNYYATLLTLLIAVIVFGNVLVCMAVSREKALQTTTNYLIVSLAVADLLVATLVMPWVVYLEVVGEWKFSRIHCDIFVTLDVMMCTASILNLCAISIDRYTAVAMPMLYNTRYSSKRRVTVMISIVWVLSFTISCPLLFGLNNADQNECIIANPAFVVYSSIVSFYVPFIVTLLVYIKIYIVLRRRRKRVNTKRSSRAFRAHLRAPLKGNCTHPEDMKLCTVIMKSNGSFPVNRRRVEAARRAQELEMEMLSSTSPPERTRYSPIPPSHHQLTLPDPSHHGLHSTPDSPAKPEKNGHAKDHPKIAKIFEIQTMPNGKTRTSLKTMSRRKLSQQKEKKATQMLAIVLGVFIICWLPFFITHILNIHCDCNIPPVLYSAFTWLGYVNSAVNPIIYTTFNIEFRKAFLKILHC
# protocolDetails: Displacement of [3H]spiperone from human dopamine D2 receptor expressed in cells
pIC50: −log10 of the molar value.

Recall and state the measured pIC50 for CN1CCN(c2ccc3c(c2)N(S(=O)(=O)c2ccc4ccccc4c2)CCC3=O)CC1 . < 5.00

Recall and state the measured pIC50 for CCC1CC(=O)c2c(N3CCN(C)CC3)cccc2N1S(=O)(=O)c1ccc2ccccc2c1 (stereo unspecified) . < 6.00

Recall and state the measured pIC50 for Cc1cc(N2CCN(C)CC2)c2c(c1)N(S(=O)(=O)c1ccc3ccccc3c1)C(C)CC2=O (stereo unspecified) . 5.75

Recall and state the measured pIC50 for CC1CC(=O)c2ccc(N3CCN(C)CC3)cc2N1S(=O)(=O)c1ccc2ccccc2c1 (stereo unspecified) . 6.87

Recall and state the measured pIC50 for CN1CCN(c2cccc3c2C(=O)CCN3S(=O)(=O)c2ccc3ccccc3c2)CC1 . < 5.00

Recall and state the measured pIC50 for CC1CC(=O)c2c(N3CCN(C)CC3)cccc2N1S(=O)(=O)c1ccc2ccccc2c1 (stereo unspecified) . < 5.00

----------
# targetEntity: 5-hydroxytryptamine receptor 6 (Homo sapiens)
# Sequence (P50406 whole entry): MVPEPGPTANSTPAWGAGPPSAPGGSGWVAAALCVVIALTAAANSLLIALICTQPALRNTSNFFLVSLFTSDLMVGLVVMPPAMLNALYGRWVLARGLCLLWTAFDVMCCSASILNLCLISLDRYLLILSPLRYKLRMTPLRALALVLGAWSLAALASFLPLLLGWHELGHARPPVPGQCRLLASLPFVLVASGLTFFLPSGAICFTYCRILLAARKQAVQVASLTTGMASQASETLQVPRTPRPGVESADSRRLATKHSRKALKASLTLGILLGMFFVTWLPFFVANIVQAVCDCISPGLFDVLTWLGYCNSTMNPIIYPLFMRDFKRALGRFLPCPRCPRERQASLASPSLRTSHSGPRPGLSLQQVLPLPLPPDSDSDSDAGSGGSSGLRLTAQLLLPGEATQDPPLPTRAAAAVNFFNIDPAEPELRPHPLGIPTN
# protocolDetails: Displacement of [3H]LSD from human 5HT6 receptor expressed in HEK293 cells
# Type: cell-based
quantityMeasured: pIC50
Give only the number. pIC50 is defined as minus log10 of concentration in molar units.

Recall and state the measured pIC50 for C[C@H]1CC(=O)c2ccc(N3CCN(C)CC3)cc2N1S(=O)(=O)c1ccc2ccccc2c1 . 7.77

Recall and state the measured pIC50 for CN1CCN(c2ccc3c(c2)N(S(=O)(=O)c2ccc4ccccc4c2)CCC3=O)CC1 . 7.59

Recall and state the measured pIC50 for C[C@@H]1CC(=O)c2c(N3CCN(C)CC3)cccc2N1S(=O)(=O)c1ccc2ccccc2c1 . 6.45

Recall and state the measured pIC50 for CN1CCN(c2cc(Br)cc3c2C(=O)CCN3S(=O)(=O)c2ccc3ccccc3c2)CC1 . 7.24

Recall and state the measured pIC50 for CCC1CC(=O)c2c(N3CCN(C)CC3)cccc2N1S(=O)(=O)c1ccc2ccccc2c1 (stereo not drawn) . 8.05

Recall and state the measured pIC50 for CN1CCN(c2ccc3c(c2)C(=O)CCN3S(=O)(=O)c2ccc3ccccc3c2)CC1 . 6.51

Recall and state the measured pIC50 for COc1cc2c(cc1N1CCN(C)CC1)N(S(=O)(=O)c1ccc3ccccc3c1)CCC2=O . 6.78

Recall and state the measured pIC50 for CC1CC(=O)c2ccc(N3CCN(C)CC3)cc2N1S(=O)(=O)c1ccc2ccccc2c1 (stereo not drawn) . 7.55

Recall and state the measured pIC50 for Cc1cc(N2CCN(C)CC2)c2c(c1)N(S(=O)(=O)c1ccc3ccccc3c1)C(C)CC2=O (stereo not drawn) . 7.96

Recall and state the measured pIC50 for C[C@@H]1CC(=O)c2ccc(N3CCN(C)CC3)cc2N1S(=O)(=O)c1ccc2ccccc2c1 . 7.37

Recall and state the measured pIC50 for Cc1ccc2c(c1N1CCN(C)CC1)C(=O)CC(C)N2S(=O)(=O)c1ccc2ccccc2c1 (stereo not drawn) . 7.82

Recall and state the measured pIC50 for Cc1ccc(S(=O)(=O)N2CCC(=O)c3c(N4CCN(C)CC4)cccc32)cc1 . 6.89

Recall and state the measured pIC50 for C[C@H]1CC(=O)c2c(N3CCN(C)CC3)cccc2N1S(=O)(=O)c1ccc2ccccc2c1 . 8.15

Recall and state the measured pIC50 for CN1CCN(c2cc(Cl)cc3c2C(=O)CCN3S(=O)(=O)c2ccc3ccccc3c2)CC1 . 7.33

Recall and state the measured pIC50 for CC1CC(=O)c2c(N3CCN(C)CC3)cccc2N1S(=O)(=O)c1ccc2ccccc2c1 (stereo not drawn) . 8.10

Recall and state the measured pIC50 for CN1CCN(c2cccc3c2C(=O)CCN3S(=O)(=O)c2ccc3ccccc3c2)CC1 . 7.21

Recall and state the measured pIC50 for CC1CC(=O)c2c(N3CCNCC3)cccc2N1S(=O)(=O)c1ccc2ccccc2c1 (stereo not drawn) . 7.38

Recall and state the measured pIC50 for Cc1c(S(=O)(=O)N2CCC(=O)c3ccc(N4CCN(C)CC4)cc32)sc2ccc(Cl)cc12 . 6.38

----------
# targetEntity: D(4) dopamine receptor (Homo sapiens)
# Sequence (P21917 whole entry): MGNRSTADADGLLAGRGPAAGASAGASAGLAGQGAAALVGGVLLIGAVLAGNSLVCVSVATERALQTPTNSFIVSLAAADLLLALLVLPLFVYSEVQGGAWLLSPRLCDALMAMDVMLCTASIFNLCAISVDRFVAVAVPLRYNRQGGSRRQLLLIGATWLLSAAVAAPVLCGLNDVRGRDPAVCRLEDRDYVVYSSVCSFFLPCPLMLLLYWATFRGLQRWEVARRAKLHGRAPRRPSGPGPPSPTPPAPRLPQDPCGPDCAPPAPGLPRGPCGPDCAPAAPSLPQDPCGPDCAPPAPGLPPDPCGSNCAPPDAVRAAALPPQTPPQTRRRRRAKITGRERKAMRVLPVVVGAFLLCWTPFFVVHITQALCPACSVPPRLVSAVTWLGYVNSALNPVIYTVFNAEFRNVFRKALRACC
# protocolDetails: Displacement of [3H]spiperone from human dopamine D4 receptor expressed in cells
quantityMeasured: IC50

Recall and state the measured IC50 for Cc1cc(N2CCN(C)CC2)c2c(c1)N(S(=O)(=O)c1ccc3ccccc3c1)C(C)CC2=O (stereo not drawn) . > 10 µM

Recall and state the measured IC50 for CC1CC(=O)c2ccc(N3CCN(C)CC3)cc2N1S(=O)(=O)c1ccc2ccccc2c1 (stereo not drawn) . > 10 µM

Recall and state the measured IC50 for CCC1CC(=O)c2c(N3CCN(C)CC3)cccc2N1S(=O)(=O)c1ccc2ccccc2c1 (stereo not drawn) . > 10 µM

----------
Please go through the items and note down their IC50.
# targetEntity: 5-hydroxytryptamine receptor 1A (Homo sapiens, UniProt P08908)
# Sequence (P08908 whole entry): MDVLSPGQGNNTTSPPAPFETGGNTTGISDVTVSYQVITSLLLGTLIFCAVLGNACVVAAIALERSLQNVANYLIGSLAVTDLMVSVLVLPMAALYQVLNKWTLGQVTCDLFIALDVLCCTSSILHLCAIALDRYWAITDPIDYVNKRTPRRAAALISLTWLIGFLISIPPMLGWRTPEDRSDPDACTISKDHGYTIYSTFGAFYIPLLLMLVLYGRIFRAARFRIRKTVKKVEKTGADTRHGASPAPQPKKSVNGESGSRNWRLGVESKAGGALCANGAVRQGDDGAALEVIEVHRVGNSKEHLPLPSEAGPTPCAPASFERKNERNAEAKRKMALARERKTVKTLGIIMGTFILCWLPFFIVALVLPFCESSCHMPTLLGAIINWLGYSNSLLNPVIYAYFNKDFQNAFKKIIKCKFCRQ
# protocolDetails: Displacement of [3H]8-OH-DPAT from human 5HT1A receptor expressed in cells
Write the figure, then the unit, nothing else.

Recall and state the measured IC50 for CCC1CC(=O)c2c(N3CCN(C)CC3)cccc2N1S(=O)(=O)c1ccc2ccccc2c1 (centres undefined) . 999 nM

Recall and state the measured IC50 for CN1CCN(c2ccc3c(c2)N(S(=O)(=O)c2ccc4ccccc4c2)CCC3=O)CC1 . 672 nM

Recall and state the measured IC50 for Cc1cc(N2CCN(C)CC2)c2c(c1)N(S(=O)(=O)c1ccc3ccccc3c1)C(C)CC2=O (centres undefined) . 1230 nM

Recall and state the measured IC50 for CC1CC(=O)c2c(N3CCN(C)CC3)cccc2N1S(=O)(=O)c1ccc2ccccc2c1 (centres undefined) . 1210 nM

----------
# targetEntity: UniProt P34969
# protocolDetails: Displacement of [3H]LSD from human 5HT7 receptor expressed in cells
pIC50: −log10 of the molar value.
quantityMeasured: pIC50

Recall and state the measured pIC50 for CC1CC(=O)c2ccc(N3CCN(C)CC3)cc2N1S(=O)(=O)c1ccc2ccccc2c1 (stereo not drawn) . < 5.00

Recall and state the measured pIC50 for Cc1cc(N2CCN(C)CC2)c2c(c1)N(S(=O)(=O)c1ccc3ccccc3c1)C(C)CC2=O (stereo not drawn) . < 5.00

Recall and state the measured pIC50 for CCC1CC(=O)c2c(N3CCN(C)CC3)cccc2N1S(=O)(=O)c1ccc2ccccc2c1 (stereo not drawn) . < 5.00
